test system: HT29 colon; assay: NCI-60 one-dose screen, 48 h (100 = growth as untreated, 0 = no growth, -100 = all killed); conditions: 10 µM unless noted
About 83,000 compounds went through this panel and 20% of them were active in at least one assay; those are over-represented in the sample as a whole.
Readings of growth for the listed molecules
Write down the numeric answer in % and omit the unit.

Guide cases for growth, answers given:
1. O=c1oc2ccccc2cc1-c1nn(-c2ccccc2)cc1/C=N/Nc1nc(-c2ccccc2)c(N=Nc2ccccc2)s1 = 31.5
2. COc1cc2cc(Oc3ccc(NC(=O)Nc4ccc(Cl)c(Cl)c4)cc3)c(C)nc2cc1OCCN1CCCCC1 = 19.9
3. CNC(=O)c1cc(Oc2cccc3nc(NC(=O)Nc4ccc(F)cc4F)ccc23)ccn1 = 35.9
4. Cn1cc(-c2csc(-c3cn(CCO)c4ccc(F)cc34)n2)c2cccnc21 = 18.2

Would you kindly look at the next entry?
State, in one line, measured growth of `COc1ccc(Cn2cc(C(=O)N=Nc3c(O)[nH]c4ccc(Br)cc34)nn2)cc1`
88.5

Ref: PubChem BioAssay (NCI)
